- System: iMPCCs (iHep micropatterned co-cultures)
- condition.details: human, 6 days
Structures can show the parent of a compound that is named as a salt.
TC50 in iMPCCs, ATP vs 3000 µM: less than gives Satisfied; not less than gives Not satisfied.

[[record]]
compound = "Cc1cccc(Nc2ccccc2C(=O)O)c1C"
target = "iMPCCs (iHep micropatterned co-cultures)"
assigned_label = "Satisfied"

[[record]]
compound = "O=c1n(CCCN2CCN(c3cccc(Cl)c3)CC2)nc2ccccn12 [Trazodone HCl]"
target = "iMPCCs (iHep micropatterned co-cultures)"
assigned_label = "Satisfied"

[[record]]
compound = "O=C(O)c1cn(C2CC2)c2cc(N3CCNCC3)c(F)cc2c1=O [Ciprofloxacin HCl]"
target = "iMPCCs (iHep micropatterned co-cultures)"
assigned_label = "Satisfied"

[[record]]
compound = "C=C[C@H]1C[N@@]2CC[C@H]1C[C@H]2[C@H](O)c1ccnc2ccc(OC)cc12"
target = "iMPCCs (iHep micropatterned co-cultures)"
assigned_label = "Satisfied"

[[record]]
compound = "NC(=O)NO [Hydroxyurea]"
target = "iMPCCs (iHep micropatterned co-cultures)"
assigned_label = "Not satisfied"


* * *

- Tested on: iCCs (confluent monolayer cultures of iHeps)
- condition.details: human, 6 days
parameter.measured: Toxicity call in iCCs

[[record]]
compound = "NNC(=O)c1ccncc1 [Isoniazid]"
target = "iCCs (confluent monolayer cultures of iHeps)"
parameter_measured = "Toxicity call in iCCs"
measurement = "non-toxic"

[[record]]
compound = "CC(=O)O[C@]1(C(C)=O)CC[C@H]2[C@@H]3C=C(Cl)C4=CC(=O)[C@@H]5C[C@@H]5[C@]4(C)[C@H]3CC[C@@]21C [Cyproterone acetate]"
target = "iCCs (confluent monolayer cultures of iHeps)"
parameter_measured = "Toxicity call in iCCs"
measurement = "non-toxic"

[[record]]
compound = "NC(=O)c1cnccn1 [Pyrazinamide]"
target = "iCCs (confluent monolayer cultures of iHeps)"
parameter_measured = "Toxicity call in iCCs"
measurement = "non-toxic"


The values you see were collected from patent US10717966B2.
